The reader will find % Inhibition Factor Xa (100 µM) measurements below, all made with Human factor Xa (Homo sapiens, UniProt P00742).
Sequence (P00742 235-488 limits assumed): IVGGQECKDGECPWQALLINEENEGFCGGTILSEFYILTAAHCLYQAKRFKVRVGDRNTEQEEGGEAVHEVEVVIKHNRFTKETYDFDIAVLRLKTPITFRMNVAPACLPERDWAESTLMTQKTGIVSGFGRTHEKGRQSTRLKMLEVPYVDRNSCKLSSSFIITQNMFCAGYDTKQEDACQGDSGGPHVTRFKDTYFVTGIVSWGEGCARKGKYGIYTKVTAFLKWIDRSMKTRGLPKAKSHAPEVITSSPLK
Sequence (P00742 41-179 limits assumed): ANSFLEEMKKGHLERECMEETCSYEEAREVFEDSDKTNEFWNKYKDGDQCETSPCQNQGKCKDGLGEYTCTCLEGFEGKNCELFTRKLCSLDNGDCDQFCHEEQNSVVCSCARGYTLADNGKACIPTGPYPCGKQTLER
recorded.endpoint: % Inhibition Factor Xa (100 µM) (%)

In the examples that follow, each entry is paired with its recorded % Inhibition Factor Xa (100 µM).
% Inhibition Factor Xa (100 µM) lookup needed for Cc1c(Cl)nc(NCCc2cccnc2)c(=O)n1CC(=O)NCCc1ccncc1 , thanks.
0

% Inhibition Factor Xa (100 µM) lookup needed for O=C(Cn1c(-c2ccc3c(c2)OCO3)c(Cl)nc(NCCc2cccnc2)c1=O)NCCc1ccncc1 , thanks.
0

% Inhibition Factor Xa (100 µM) lookup needed for O=C(Cn1c(CCc2ccccc2)c(Cl)nc(NCCc2cccc(Cl)c2)c1=O)NCCc1ccncc1 , thanks.
0

% Inhibition Factor Xa (100 µM) lookup needed for O=C(Cn1c(-c2ccc3c(c2)OCO3)c(Cl)nc(NCCc2ccncc2)c1=O)NCCc1ccncc1 , thanks.
0

% Inhibition Factor Xa (100 µM) lookup needed for Cc1c(Cl)nc(NCCc2ccncc2)c(=O)n1CC(=O)NCCc1ccncc1 , thanks.
0

A. O=C(Cn1c(-c2ccccc2)c(Cl)nc(NCc2ccccc2)c1=O)NCCc1ccncc1
B. COc1ccc(-c2c(Cl)nc(NCc3ccncc3)c(=O)n2CC(=O)NCCc2ccncc2)cc1
C. O=C(Cn1c(-c2ccc(-c3ccccc3)cc2)c(Cl)nc(NCCc2cccc(Cl)c2)c1=O)NCCc1cccnc1
D. O=C(Cn1c(Cc2ccccc2)c(Cl)nc(NCc2ccccc2)c1=O)NCCc1ccncc1
Please list these compounds in decreasing order of % Inhibition Factor Xa (100 µM). Form entry: labels listed in requested order.
D, C, A, B
(D: 6%, C: 4%, A: 1%, B: 0%)

---

# measured.on: TF-VIIa (Homo sapiens, UniProt P08709)
# Construct: 2nM recombinant human factor VIIa; purchased American Diagnostica, Greenwich CT; host or cells: soluble TF made in house in E. coli
# Sequence (P08709 213-466 limits assumed): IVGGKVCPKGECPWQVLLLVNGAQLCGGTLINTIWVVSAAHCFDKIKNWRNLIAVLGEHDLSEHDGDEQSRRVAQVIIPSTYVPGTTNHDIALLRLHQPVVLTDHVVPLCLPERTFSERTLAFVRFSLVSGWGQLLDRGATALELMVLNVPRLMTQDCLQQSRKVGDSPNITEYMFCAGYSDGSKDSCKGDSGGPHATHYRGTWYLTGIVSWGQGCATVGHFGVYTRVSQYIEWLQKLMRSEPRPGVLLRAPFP
# Sequence (P08709 61-212 limits assumed): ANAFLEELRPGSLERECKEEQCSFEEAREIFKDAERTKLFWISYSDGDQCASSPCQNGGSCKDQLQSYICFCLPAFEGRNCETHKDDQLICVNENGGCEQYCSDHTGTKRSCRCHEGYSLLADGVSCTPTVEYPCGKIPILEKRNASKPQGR
# Sequence (P13726 33-251 partner limits assumed): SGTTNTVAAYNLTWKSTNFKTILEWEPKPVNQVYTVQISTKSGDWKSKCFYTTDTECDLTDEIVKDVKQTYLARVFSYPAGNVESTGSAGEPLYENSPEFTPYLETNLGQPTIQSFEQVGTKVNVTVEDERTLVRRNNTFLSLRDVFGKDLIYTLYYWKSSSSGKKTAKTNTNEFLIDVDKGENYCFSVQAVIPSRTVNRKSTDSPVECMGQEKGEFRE
# assay.name: TF-VIIa Assay
# Format: biochemical
# details: read-out: IC50 or % Inhibition TF-VIIa (30 µM); cells given as a plain number (IC50)
pIC50: −log10 of the molar value.
recorded.endpoint: pIC50

pIC50 lookup needed for N=C(N)c1ccc(CNC(=O)Cn2c(-c3cccc(Br)c3)c(Cl)nc(NCc3ccccc3)c2=O)cc1 , thanks.
5.24

pIC50 lookup needed for N=C(N)c1ccc(CNC(=O)Cn2c(-c3ccccc3Cl)c(Cl)nc(NC3CCC3)c2=O)cc1 , thanks.
5.06

pIC50 lookup needed for CCN1CC(Nc2nc(Cl)c(-c3ccccc3)n(CC(=O)NCc3ccc(C(=N)N)cc3)c2=O)CN1CC , thanks.
5.40

a. CC(C)Nc1nc(Cl)c(-c2cccc(N)c2)n(CC(=O)NCc2ccc(C(=N)N)c(F)c2)c1=O
b. N=C(N)c1ccc(CNC(=O)Cn2c(-c3ccccc3)c(Cl)nc(NCCc3ccc(Br)cc3)c2=O)cc1
// pick larger pIC50 from pair: a vs b Answer by stating the label of the chosen item.
a
(a: 6.30, b: 4.70)

---

# measured.on: Human factor Xa (Homo sapiens)
recorded.endpoint: IC50 or % Inhibition Factor Xa (30 µM) (%)

In the examples that follow, each entry is paired with its recorded IC50 or % Inhibition Factor Xa (30 µM).
IC50 or % Inhibition Factor Xa (30 µM) lookup needed for N=C(N)c1ccc(CNC(=O)Cn2c(-c3ccc4c(c3)OCO4)c(Cl)nc(NCCN3CCOCC3)c2=O)cc1 , thanks.
13

IC50 or % Inhibition Factor Xa (30 µM) lookup needed for Cc1c(Cl)nc(NCCc2cccc(Cl)c2)c(=O)n1CC(=O)NCc1ccc(C(=N)N)cc1 , thanks.
14

I. N=C(N)c1ccc(CNC(=O)Cn2c(-c3ccccc3)c(Cl)nc(NCc3c(F)cccc3C(F)(F)F)c2=O)cc1
II. N=C(N)c1ccc(CNC(=O)Cn2c(-c3ccccc3)c(Cl)nc(NCc3cc(F)cc(C(F)(F)F)c3)c2=O)cc1
III. N=C(N)c1ccc(CNC(=O)Cn2c(-c3ccc(-c4ccccc4)cc3)c(Cl)nc(NCCc3cccc(Cl)c3)c2=O)cc1
IV. N=C(N)c1ccc(CNC(=O)Cn2c(-c3ccsc3)c(Cl)nc(NCc3ccccc3)c2=O)cc1
V. N=C(N)c1ccc(CNC(=O)Cn2c(-c3ccc(-c4ccccc4)cc3)c(Cl)nc(NCCc3cccnc3)c2=O)cc1
Please list these molecules in decreasing order of IC50 or % Inhibition Factor Xa (30 µM). Form entry: labels listed in requested order.
V, III, I, II, IV
(V: 22%, III: 12%, I: 6%, II: 4%, IV: 0%)
